- Protocol summary: Metabolic stability with human hepatocytes
- Assay type: in vitro ADME
- Condition: human hepatocyte suspension, 1 μM, scaled with well stirred model
Readout: CL (predicted human hepatic in vivo blood clearance) (mL/min/kg)

Compound: CN1C(=O)N(c2ccnc(C(F)(F)F)c2)C2=C(C(=O)CCC2)C1c1ccc(C#N)cc1S(C)(=O)=O (stereo not shown)
Value units: mL/min/kg
Assay result: 0
//
Compound: CCS(=O)(=O)c1cc(C#N)ccc1[C@H]1NC(=O)N(c2cccc(C(F)(F)F)c2)C2=C1C(=O)CCC2 (single isomer, unassigned) [Example 54A]
Value units: mL/min/kg
Assay result: 2
//
Compound: CNC(=O)N1C(=O)N(c2cccc(C(F)(F)F)c2)C2=C(C(=O)CCC2)[C@H]1c1ccc(C#N)cc1S(C)(=O)=O (single isomer, unassigned) [Example 47A]
Value units: mL/min/kg
Assay result: 0
//
Compound: CS(=O)(=O)c1cc(C#N)ccc1[C@H]1NC(=O)N(c2cccc(C(F)(F)F)c2)C2=C1C(=O)CCC2 (single isomer, unassigned) [Example 18A]
Value units: mL/min/kg
Assay result: 0
//
Compound: CS(=O)(=O)c1cc(C#N)ccc1[C@@H]1C2=C(CCCC2=O)N(c2cccc(C(F)(F)F)c2)C(=O)N1C(=O)NCC(F)F
Value units: mL/min/kg
Assay result: 0

[a] CS(=O)(=O)c1cc(C#N)ccc1C1C2=C(CCCC2=O)N(c2cccc(C(F)(F)F)c2)C(=O)N1CCCO (stereo not shown)
[b] CS(=O)(=O)c1cc(C#N)ccc1[C@@H]1C2=C(CCCC2=O)N(c2cccc(C(F)(F)F)c2)C(=O)N1C(=O)NC1CCOCC1
Task item: Just curious, which one has the larger CL (predicted human hepatic in vivo blood clearance) reading, a or b ? Write down the label of the entry you select.
Reply: a

The measured values listed here are drawn from patent US9115093B2.
